meta.source: PubChem BioAssay (NCI)

System: SN12C renal
Test Name: NCI tumour cell line growth inhibition, 48 h
Field: TGI. Provide a value for each of the compounds that follow.

Compound	Target System	TGI
O=C1CCc2cc3c(cc21)C(C(=O)O)CC3 (centres undefined)	SN12C renal	> 100 µM
S=c1oc(CCCCCCCCc2nn(CNc3ccc(Cl)cc3)c(=S)o2)nn1CNc1ccc(Cl)cc1	SN12C renal	> 100 µM
C=C1C(=O)O[C@H]2[C@H]1CC/C(COC(=O)/C=C/C(=O)OC/C1=C/CC[C@@]3(C)O[C@H]3[C@H]3OC(=O)C(=C)[C@@H]3CC1)=C\CC[C@@]1(C)O[C@@H]21	SN12C renal	4.04 µM

Moving on to the next compound.
Query: What value of TGI on SN12C renal does `COC(=O)NC(Nc1ccc(C)cc1)(C(F)(F)F)C(F)(F)F` have?
Result: > 100 µM
